Tested on: CCRF-CEM leukemia
Experiment: NCI tumour cell line growth inhibition, 48 h
Assay metric: TGI

Reference set (5 entries):
Molecule | Assay metric | Endpoint value
COc1cc2oc(=O)cc(C)c2cc1[N+](=O)[O-] | TGI | > 100 µM
CCN(CC)CCCN(c1cc(OC)cc2nccnc12)S(=O)(=O)c1ccc(C)cc1 | TGI | > 100 µM
C[Si](C)(C)C#CCO[Si](C)(C)C | TGI | > 64 µM
C=CC1(C)CCC(C(C)C(=O)C(C=C(C)C)OC(C)=O)C12C(=O)Oc1ccccc1C2=O (stereo unspecified) | TGI | > 100 µM
Oc1c(CN2CCC(N3CCOCC3)CC2)cc(Cc2cc(CN3CCC(N4CCOCC4)CC3)c(O)c3ncccc23)c2cccnc12 | TGI | > 100 µM

For reference, reported TGI for COc1cc(/C=C(/C)[N+](=O)[O-])ccc1O stands at 4.91 µM

TGI recorded for this molecule, COc1ccc2[nH]cc(CCNC(C)=O)c2c1 , is > 100 µM

Looking up CC(=O)N=C(N=Nc1c(O)[nH]c2ccc(C)cc12)NC(C)=O , I see its TGI listed as > 100 µM

// recorded TGI for O=C(O)c1ccc(S(=O)(=O)c2ccccc2)c([N+](=O)[O-])c1 : > 100 µM

# molecule CCCCCC(CN1CCOCC1)C(=O)/C=C/c1ccccc1 (stereo unspecified) ; its TGI = 6.72 µM

Notebook: O=[N+]([O-])c1cnc(Sc2ccncn2)c([N+](=O)[O-])c1 , TGI read as 4.47 µM

The molecule listed as Cn1ccnc1C(=O)/C=C/c1ccc(CC(=O)Nc2ccc(Cl)cc2)cc1 shows TGI equal to > 25 µM

====

Tested on: MCF7 breast
Assay: NCI tumour cell line growth inhibition, 48 h
# GI50 annotations

Compound | GI50
CNc1ccccc1C(=O)N/N=C/C=C/c1ccccc1 | 490 nM
CS(=O)(=O)c1ccc(Oc2cc(F)cc(C#N)c2)c2c1[C@H](O)[C@H](F)[C@@H]2F | > 100000 nM
Nc1c(C(=O)Nc2ccccc2)sc2nc3c(cc12)CCCCCC3 | 288 nM

Form: compound = O=C(/C=C/c1ccco1)c1ccc(Nc2nc(Nc3ccc(F)cc3)nc(Nc3ccc(Cl)cc3)n2)cc1 ; GI50 = 1840 nM

# compound COc1ccc(C(=O)Cn2c(C(=O)c3ccc(Cl)cc3)nc3ccccc32)cc1 ; its GI50 = 3000 nM

====

System: SK-MEL-28 melanoma
Test: NCI tumour cell line growth inhibition, 48 h
Assay metric: TGI

Example compounds with recorded TGI:
Compound | TGI
CC(C)C(C(=O)O)N(CC1(O)OCC(O)C(O)C1O)N=O (configuration not stated) | > 100 µM
CCCCCCCCCCCCCS(=O)(=O)O | > 100 µM
OCCN(CCO)N=Nc1ccc(-c2nc3ccccc3[nH]2)cc1 | 29.5 µM
CCCc1c2c([nH]c(=O)c1C)C(=O)c1[nH]c(=O)c(C)c(CCC)c1C2=O | > 100 µM
CSC(SC)=C1CC(=O)Nc2ccccc2C1=O | > 100 µM
O=C(O)c1ccc(NC(=O)C2C(=O)C(=O)N(c3ccc(C(=O)O)cc3)C2=O)cc1 (configuration not stated) | > 100 µM
C/C(=N\N=C(N)N)C(CN(CC(C)C)CC(C)C)C(=O)Nc1ccc(C)cc1C (configuration not stated) | > 100 µM
C/C(=N\NC(=S)N1CCCCCC1)c1nccnc1C | > 100 µM
c1ccc(N=C2c3ccccc3CN2c2ccccc2)cc1 | > 100 µM
CS(=O)(=O)c1ccc(Oc2cc(F)cc(C#N)c2)c2c1[C@H](O)[C@H](F)[C@@H]2F | > 100 µM

TGI reported for this compound CCc1ccc(-c2nnc(COc3ccc(-c4nc5ccc(C)cc5[nH]4)cc3OC)o2)cc1 : 6.66 µM

According to the records, this compound COC(=O)c1c[nH]cc1CCc1c[nH]cc1C(=O)OC displays TGI of > 100 µM
